Examples of molecules with documented TGI follow.
test system: HL-60(TB) leukemia; test: NCI tumour cell line growth inhibition, 48 h
Give your result in µM as a bare value.

Worked examples follow.
Cc1cc(C)c2c(n1)S(=O)(=O)N(CCCN1CCN(c3cccc(Cl)c3)CC1)/C(=C(\O)c1ccccc1)C2=O :: 71
CC(=O)c1c(SCCN2CCOCC2)n(-c2ccccc2)c(=S)n(-c2ccccc2)c1=O :: 51.9
CC(C)(C)c1cc2c(c(C(C)(C)C)c1O)CC(=O)O2 :: 86.8
Cc1ccc(S(=O)(=O)N/N=C(\c2nc3ccc([N+](=O)[O-])cc3[nH]c2=O)C(O)c2ccc([N+](=O)[O-])cc2)cc1 (stereo not given) :: 95.6
CC1=C(/C=C/C(=O)CC(=O)/C=C/C2=C(C)CCCC2(C)C)C(C)(C)CCC1 :: 24.2
NCCCCCNc1noc(Cc2c[nH]c3cc(Br)ccc23)n1 :: 9.15
CCCCCCCCCCCCCCCCCCNCc1ccc(Cl)cc1 :: 3.94

Here is another molecule to look at.
Req: Give TGI (HL-60(TB) leukemia) of the following molecule: CN(C)CCNCc1ccc2c(-c3ccccc3)nc3cc(Cl)c(Cl)cc3n12
Resp: 11.6

----------
test system: MCF7 breast; assay: NCI tumour cell line growth inhibition, 48 h
Reported property: TGI

Worked examples follow.
CNCCN[C@@H]1c2cc3c(cc2[C@@H](c2cc(OC)c(O)c(OC)c2)[C@H]2C(=O)OC[C@@H]21)OCO3 :: > 53.3 µM
CC(=O)NC1C(OC(C)C(=O)NC(C(=O)NC(CCC(=O)NCCCNC2c3ccccc3Nc3cccc([N+](=O)[O-])c32)C(N)=O)C(C)C)C(O)C(CO)OC1(C)OCc1ccccc1 (stereo not given) :: 2.85 µM
CO/N=C(/C)c1cccc(Nc2nc3ccc(Cl)cc3c3[nH]c4ccccc4c23)c1 :: 26.2 µM
c1ccc(CN2CCc3[nH]c4ccccc4c3C2)cc1 :: 31.9 µM

Here is another compound to look at.
Req: Would you mind telling me what TGI value was observed for O=C1c2c(Br)sc(Br)c2[C@@H](Cl)[C@H]1Cl ?
Resp: 53.5 µM

----------
Examples of compounds with documented TGI follow.
tested on: DU-145 prostate; experiment: NCI tumour cell line growth inhibition, 48 h
Give your result in µM as a bare value.

C[C@]12Cc3cnc(-c4ccccc4)nc3C[C@@H]1CC[C@@H]1[C@@H]2CC[C@@]2(C)[C@H]1CC[C@]2(C)O :: 44.1
CC(C)(C)c1cc(C(=O)Nc2ccc(C(=O)NCCN)cc2)cc(C(C)(C)C)c1 :: 12.4

Req: Would you mind telling me what TGI value was observed for O=C(Nn1c(-c2cccs2)nc2ccc(I)cc2c1=O)c1ccccc1 ?
Resp: 46.7

----------
Examples of molecules with documented TGI follow.
test system: NCI-H522 lung; experiment: NCI tumour cell line growth inhibition, 48 h
Give your result in µM as a bare value.

Worked examples follow.
COc1ccc2c(c1)c1c(n2CCN2CCOCC2)-c2cccc(OC)c2CC1 :: 89
S=C=Nc1ccc(CSc2nc3ccccc3[nH]2)cc1 :: 19.1
COc1cc(Cl)cc(-c2nn(-c3cccc(NC(=O)Nc4cccc(C(F)(F)F)c4)c3)cc2-c2ccncc2)c1 :: 2.51
O=C(CC(O)(C(F)(F)F)C(F)(F)Cl)CC(O)(C(F)(F)F)C(F)(F)Cl (centres undefined) :: 8.78

Req: Would you mind telling me what TGI value was observed for OB(O)c1ccccc1C#Cc1ccccc1B(O)O ?
Resp: 41.7
